Tested on: Rattus norvegicus
Assay: Clearance in Lewis rat at 1 mg/kg, iv
Format: ADME, organism-based
Design: dose 1 mg/kg, route intravenous
Details: in vivo
QUANTITY_KIND: clearance (mL/min/kg)
One number for each entry, in mL/min/kg.

The molecule listed as Cc1ccc(C(=O)NC2CC2)cc1-c1ccc(C(=O)NCC2CC2)cn1 shows clearance equal to 1.5

###

Please go through the items and note down their AUC.
Assay: AUC in Lewis rat 0.25 mg/kg, po
Settings: Lewis, plasma
Give bare numbers, in ng·h/mL.

Known results for molecules:
The measured AUC associated with Cc1c(F)cc(C(=O)NC2CC2)cc1-c1ccc(C(=O)NCC2CC2)cn1 reads 810

The recorded AUC for entry Cc1c(F)cc(C(=O)NC2CC2)cc1-c1ccc(C(=O)N[C@H](C)C(C)(C)C)cn1 equals 23

Kindly note the recorded AUC for Cc1c(F)cc(C(=O)NC2CC2)cc1-c1ccc(C(=O)N[C@H](C)C(C)C)cn1 , which is 50

Record summary for Cc1c(F)cc(C(=O)NC2CC2)cc1-c1ccc(C(=O)N[C@@H](C)C(C)(C)C)cn1 : reported AUC = 6

Just so you know, measured AUC for Cc1c(F)cc(C(=O)NC2CC2)cc1-c1ccc(C(=O)N[C@@H](C)C(C)C)cn1 came out at 8

The record that follows has no AUC shown yet.
Sure, the documented AUC for Cc1c(F)cc(C(=O)NC2CC2)cc1-c1ccc(C(=O)NCC(C)C)cn1 is 360
